# credit: patent US9018214B2

Tested on: BIR3 domain of human XIAP (residues 252-350) (Homo sapiens (Human))
Sequence (P98170 252-350): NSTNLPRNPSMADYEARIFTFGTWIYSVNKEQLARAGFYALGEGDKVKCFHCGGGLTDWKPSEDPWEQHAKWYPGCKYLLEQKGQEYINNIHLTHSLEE
Test details: XIAP in vitro competitive displacement binding assay (fluorescence polarization)
Stated conditions: 1 h, read-out: IC50 or PI Xiap: PI
Where a name gives a salt, the structure may show the parent alone.
Record yes (1) whenever inhibition at 0.04 µM is at 70% or higher; record no (0) when lower.

Molecule: CCCC(F)(F)c1cnc2c(c1)N(C(=O)CN1C[C@@H](C)NC[C@@H]1CN1CCOC[C@H]1C)CC2(C)C [Example 260, dihydrochloride]
Group: yes (1)
--
Molecule: C[C@@H]1CN(CC(=O)N2CC(C)(C)c3ncc(C(F)(F)CC4CC4)cc32)[C@@H](CN2CCCC2=O)CN1 [Example 230, formate]
Group: no (0)
--
Molecule: CC[C@@H]1COCCN1C[C@H]1CN[C@H](C)CN1CC(=O)N1CC(C)(C)c2ncc(C(F)(F)CC)cc21 [Example 255, dihydrochloride]
Group: no (0)
--
Molecule: C[C@@H]1CN(CC(=O)N2CC(C)(C)c3ncc(Cc4ccccc4F)cc32)[C@@H](CN2CCOC[C@H]2C)CN1 [Example 261, dihydrochloride]
Group: no (0)
